The following molecules have recorded GI50 on MDA-MB-435.
MEASUREMENT_NAME: GI50

{"MOLECULE": "OC(COc1cccc2ccccc12)CN1CCN(c2ccc(Cl)cc2)CC1 (stereo unspecified)", "VALUE_MEASURED": "38.8 µM"}
{"MOLECULE": "COc1cc(-c2nc(-c3nnc(-c4ccc(F)c(Cl)c4)o3)c3ccccn23)cc(OC)c1OC", "VALUE_MEASURED": "3.09 µM"}
{"MOLECULE": "C[C@H](C(=O)N[C@@H](Cc1ccc(-c2ccccc2)cc1)C(=O)NC1CC(C)(C)N(C)C(C)(C)C1)c1ccc(-c2ccccc2)c(F)c1", "VALUE_MEASURED": "1.29 µM"}
{"MOLECULE": "O=c1c2[nH]c3ccccc3c2nc2n1CCS2", "VALUE_MEASURED": "> 100 µM"}
{"MOLECULE": "COc1cc(OC)cc(-c2ccc(-c3ccc(C(=N)N)s3)s2)c1", "VALUE_MEASURED": "0.271 µM"}
{"MOLECULE": "O=C(Nc1ccc(Cl)cc1F)c1cc(F)ccc1O", "VALUE_MEASURED": "0.626 µM"}
{"MOLECULE": "CN(C)CCN1C(=O)c2cccc3c(N)ccc(c23)C1=O", "VALUE_MEASURED": "11.1 µM"}
{"MOLECULE": "COc1nc2c(cc1S(=O)(=O)c1ccccc1)CCc1c-2cnn1Cc1ccccc1", "VALUE_MEASURED": "> 100 µM"}
{"MOLECULE": "COc1cc(-c2nc3ccccc3[nH]2)ccc1OCC(=O)N=Nc1c(O)[nH]c2ccc(Cl)cc12", "VALUE_MEASURED": "1.43 µM"}
{"MOLECULE": "NC(=O)c1ccc2nc(-c3ccc(C4(N)CCC4)cc3)c(-c3ccccc3)n2n1", "VALUE_MEASURED": "11.8 µM"}
{"MOLECULE": "COc1ccc(C2=CC(c3ccc(Oc4ccnc5cc(Cl)ccc45)c(OC)c3)c3c(nc(OC)[nH]c3=O)N2)cc1 (stereo unspecified)", "VALUE_MEASURED": "5.06 µM"}
